# System: M14
# Protocol notes: NCI tumour cell line growth inhibition, 48 h
Active and inactive are the calls of the source. Cut-off read from the data, not from the text of the source: active = GI50 up to about 1.1 µM and inactive = higher.
Reply using exactly one outcome from active, inactive

>  <Compound>
CC(=O)OCCCCn1cnc2nc(Nc3ccccc3)nc(Cl)c21

>  <Class>
inactive

$$$$

Continue with the compound presented below.
Q) Assay result, entry Cc1c(O)c(OC2OC(CO)C(O)C(O)C2O)cc2c1CC[C@@H]1C2(C)C(=O)C[C@]2(C)[C@@H]([C@@](C)(O)C(O)/C=C/C(C)(C)O)[C@H](O)C[C@@]12C (stereo partly specified) — outcome?
A) inactive

---

Recorded GI50 by entry
# Test system: SF-268
# Protocol notes: NCI tumour cell line growth inhibition, 48 h
Active and inactive are the calls of the source. Rule as the data show it: active = GI50 up to about 1.1 µM and inactive = higher.

>  <Compound>
O=C(O)C(=Cc1ccc(-c2ccc([N+](=O)[O-])cc2)o1)C(=O)O

>  <Test value>
> 100 µM (inactive)

$$$$
>  <Compound>
CSc1ncc2c(n1)C(C#N)C1Sc3ccccc3N1C2=O (stereo unspecified)

>  <Test value>
44.9 µM (inactive)

$$$$
>  <Compound>
COc1ccc(OC)c2c3c(ccc12)C(c1ccccc1)OC3=O (stereo unspecified)

>  <Test value>
> 100 µM (inactive)

$$$$
>  <Compound>
COc1ccc(-c2nc(N)nc(-c3cc(C)ccc3O)c2Cl)cc1

>  <Test value>
26.4 µM (inactive)

$$$$
>  <Compound>
CC1=NN2C(=O)CC(=O)N=C2S1

>  <Test value>
> 100 µM (inactive)

$$$$

Now let's try a different one.
What the record says about O=C(NCC(=O)N1CCCC1C(=O)OC(=O)C1CCCN1C(=O)CNC(=O)OCc1ccccc1)OCc1ccccc1 (stereo unspecified) : GI50 is 30.4 µM (inactive)

---

Recorded GI50 by entry
# Test system: HT-29
# Protocol notes: NCI tumour cell line growth inhibition, 48 h
The source made the active and inactive calls. Rule as the data show it: active = GI50 up to about 1.1 µM and inactive = higher.

The following molecules have reported results that may help.
>  <Molecule>
O=C(c1ccco1)N(C(=S)OCc1ccccn1)c1ccccc1

>  <GI50>
> 100 µM (inactive)

$$$$
>  <Molecule>
CC(C)(C)OC(=O)[C@@H]1ON2O[C@H](OC3CCCC3(c3ccccc3)c3ccccc3)C[C@H]3OC(=O)[C@@H]1[C@H]32 (stereo not given in full)

>  <GI50>
38.8 µM (inactive)

$$$$
>  <Molecule>
O=[N+]([O-])c1ccc(SN=S=NSc2cccc(SN=S=NSc3ccc([N+](=O)[O-])cc3)c2)cc1

>  <GI50>
33.2 µM (inactive)

$$$$
>  <Molecule>
CSc1ncnc2c1cnn2Cc1cn(COCC(O)CO)nn1 (stereo not given)

>  <GI50>
> 100 µM (inactive)

$$$$
>  <Molecule>
Cn1c2c([N+](=O)[O-])cccc2c(=O)c2c(O)cc3c(c21)C=CC(C)(C)O3

>  <GI50>
23.4 µM (inactive)

$$$$

What the record says about N#CC(C#N)=C(N)/C(C#N)=C/c1ccc2[nH]ccc2c1 : GI50 is > 100 µM (inactive)

What the record says about C[C@H]1CC[C@@H]2[C@@H](C)[C@H]3[C@H](C[C@H]4[C@@H]5CC=C6C[C@@H](O)CC[C@]6(C)[C@H]5C[C@H](O)[C@]34C)N2C1 : GI50 is > 100 µM (inactive)

What the record says about Cn1ccc2c(C(=O)c3ccccc3)cccc2c1=O : GI50 is 44.2 µM (inactive)

What the record says about C#CCN(C(=O)C(F)(F)F)c1ccc(C(=O)c2ccc(N(CC#C)C(=O)C(F)(F)F)cc2)cc1 : GI50 is 19.5 µM (inactive)

What the record says about COC(=O)c1sc(=O)sc1SCc1cccc(CSc2sc(=O)sc2C(=O)OC)c1 : GI50 is > 100 µM (inactive)

What the record says about C=C1C(=O)C2=C[C@H]1C[C@H](O)C(=O)[C@]1(C)CCCC(C)(C)[C@H]1C[C@H]2O : GI50 is 1.47 µM (inactive)

What the record says about Cc1cc(Cl)nc2nc(Cl)c(N)cc12 : GI50 is 2.15 µM (inactive)

What the record says about CSc1ncc2c(n1)C(C#N)C1Sc3ccccc3N1C2=O (stereo not given) : GI50 is > 100 µM (inactive)

What the record says about O=C(NC1C=Nc2ccccc2NC1=O)c1ccccc1Cl (stereo not given) : GI50 is 55.7 µM (inactive)

What the record says about CN(C)CCNC(=O)c1c(O)ccc2c1c1c(n2CCc2ccccc2)C(=O)c2ccccc2C1=O : GI50 is 6.82 µM (inactive)

What the record says about CC(=O)NC(C)(C)C1CCC(C)CC1 (stereo not given) : GI50 is > 100 µM (inactive)

What the record says about OCCOCn1nc(-c2ccccc2)nc1-c1cnccn1 : GI50 is > 100 µM (inactive)

What the record says about COc1ccc(-c2c(C#N)c(=O)nc(SC)n2C2OCC(OC(C)=O)C(OC(C)=O)C2OC(C)=O)cc1 (stereo not given) : GI50 is 56 µM (inactive)

What the record says about Cc1cc(N(CCC#N)CCC#N)ccc1/C=C1N=C(/C=C/c2ccccc2)OC(=O)N\1 : GI50 is > 100 µM (inactive)

What the record says about CC1C2CC(CC2(C)O)C1(C)C (stereo not given) : GI50 is > 100 µM (inactive)
